- Assay System: LXRα LBD (GST) (Homo sapiens)
- Construct: 5 nM LXRα LBD (GST); 10 nM LXRβ LBD (GST); purchased ThermoFisher Scientific PV4655
- Sequence (Q13133 209-447 limits assumed): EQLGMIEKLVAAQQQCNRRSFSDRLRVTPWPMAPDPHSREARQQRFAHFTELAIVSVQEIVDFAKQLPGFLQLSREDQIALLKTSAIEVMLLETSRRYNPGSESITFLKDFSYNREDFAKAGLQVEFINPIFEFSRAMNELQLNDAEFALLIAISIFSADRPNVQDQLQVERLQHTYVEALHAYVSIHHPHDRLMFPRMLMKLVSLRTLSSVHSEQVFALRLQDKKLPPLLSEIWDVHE
- Protocol Text: Time-resolved LXR FRET assay (LanthaScreen TR-FRET LXRα Coactivator Assay Kit)
- Assay type: biochemical
- Condition Summary: 5 nM LXRα LBD (GST), read after 6 h; R^2 of fit given; read-out: TR-FRET activity (EC50) LXRα
Each record is given rule met if its reported EC50 is strictly below 400 nM. Records at or above 400 nM are given rule not met.

is_below(EC50, 400 nM) for COc1ccc(NC2=C(c3ccccc3)C(=O)NC2=O)cc1 [Compound 25] ?
rule not met

Please let me know if O=C1C(Nc2ccc(N3CCSCC3)cc2)=C(c2ccccc2)C(=O)N1Cc1ccccc1 [Compound 42] shows EC50 below 400 nM.
rule met

I wonder whether COc1ccc(OC2=C(c3ccccc3)C(=O)N(Cc3ccccc3)C2=O)cc1 [Compound 26] has EC50 below 400 nM. Can you tell?
rule not met

Just wondering, is EC50 of COc1ccc(CN2C(=O)C(Nc3ccc(OC)cc3)=C(c3ccccc3)C2=O)cc1 [Compound 19] below 400 nM?
rule not met

Quick check: does O=C1C(Nc2ccc3c(c2)OCO3)=C(c2ccccc2)C(=O)N1Cc1ccccc1 [Compound 38] have EC50 under 400 nM?
rule met

Lab note: confirm whether the reported EC50 for this molecule is below 400 nM, equality not counting. molecule: O=C1C(Nc2ccc(CO)cc2)=C(c2ccccc2)C(=O)N1Cc1ccccc1 [Compound 34]
rule met

----------
- Assay System: LXRα LBD (GST) (Homo sapiens)
- Construct: 5 nM LXRα LBD (GST); 10 nM LXRβ LBD (GST); purchased ThermoFisher Scientific PV4655
- Protocol Text: Time-resolved LXR FRET assay (LanthaScreen TR-FRET LXRα Coactivator Assay Kit)
- Type: biochemical
- Condition Summary: supplement list of compounds, LXRα; unit inferred; read-out: FRET activity a
Would you mind telling me the reported EC50 of each entry?

Read off the recorded EC50 for O=C1CCN(c2ccc(NC3=C(c4ccccc4)C(=O)N(Cc4ccccc4)C3=O)cc2)CC1 [Compound 49]
103 nM

Identify the reported EC50 for the following entry. O=C1C(Nc2ccc(NC3CCNCC3)cc2)=C(c2ccccc2)C(=O)N1Cc1ccccc1 [Compound 47]
618 nM

Give the reported value of EC50 for this record: CC(C)(C)OC(=O)NC1CCN(c2ccc(NC3=C(c4ccccc4)C(=O)N(Cc4ccccc4)C3=O)cc2)CC1 [Compound 45]
> 3000 nM

State, in one line, measured EC50 of O=C(c1ccc(NC2=C(c3ccccc3)C(=O)N(Cc3ccccc3)C2=O)cc1)N1CCCCC1 [Compound 50]
74 nM

For the molecule CN1CCN(c2ccc(NC3=C(c4ccccc4)C(=O)N(Cc4ccccc4)C3=O)cc2)CC1 [Compound 44] , report EC50.
379 nM

Answer with the recorded EC50 of CN1CCC(Nc2ccc(NC3=C(c4ccccc4)C(=O)N(Cc4ccccc4)C3=O)cc2)CC1 [Compound 48] only.
786 nM

----------
- Assay System: LXRβ LBD (GST) (Homo sapiens, UniProt P55055)
- Construct: 5 nM LXRα LBD (GST); 10 nM LXRβ LBD (GST); purchased ThermoFisher Scientific PV4658
- Sequence (P55055 222-460 limits assumed): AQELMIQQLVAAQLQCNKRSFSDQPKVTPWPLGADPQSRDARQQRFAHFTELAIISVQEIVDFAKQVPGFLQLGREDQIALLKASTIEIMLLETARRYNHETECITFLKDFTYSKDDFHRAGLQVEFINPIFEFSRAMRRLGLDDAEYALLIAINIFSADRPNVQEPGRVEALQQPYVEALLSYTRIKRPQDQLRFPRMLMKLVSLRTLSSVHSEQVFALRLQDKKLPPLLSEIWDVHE
- Protocol Text: Time-resolved LXR FRET assay (LanthaScreen TR-FRET LXRβ assay kit)
- Type: biochemical
- Condition Summary: 10 nM LXRβ LBD (GST), read after 6 h; R^2 of fit given; read-out: TR-FRET activity (EC50) LXRβ
Property Label: EC50 (nM)
Answer format: numeric, nM implied, no suffix.

Give the value of EC50 reported for the following: "O=C1C(Nc2ccc(N3CCOCC3)cc2)=C(c2ccccc2)C(=O)N1Cc1ccccc1"
106

Using the record for "O=C1C(Nc2ccc(CO)cc2)=C(c2ccccc2)C(=O)N1Cc1ccccc1" , state its measured EC50.
133

Tell me EC50 reported for "NC1CCN(c2ccc(NC3=C(c4ccccc4)C(=O)N(Cc4ccccc4)C3=O)cc2)CC1"
120

Dear colleague, please send me the reported EC50 for "COc1cc(NC2=C(c3ccccc3)C(=O)N(Cc3ccccc3)C2=O)cc(OC)c1" when you can.
1320

// fetch EC50 given entry "COc1ccc(NC2=C(c3ccccc3)C(=O)N(CC3CC3)C2=O)cc1"
163

Write down EC50 measured for item "O=C1C(Nc2ccccc2)=C(c2ccccc2)C(=O)N1Cc1ccccc1"
265

Fill in EC50 for record O=C(O)Cc1cccc(OCCCN(Cc2cccc(C(F)(F)F)c2Cl)CC(c2ccccc2)c2ccccc2)c1 [GW3965 (2), reference compound]
24

Identify measured EC50 associated with COc1ccc(NC2=C(c3ccccc3)C(=O)N(Cc3ccccc3)C2=O)cc1 [GSK3987 (3), reference compound]
180

Give the reported value of EC50 for this record: "O=C1C(Nc2ccc3c(c2)OCO3)=C(c2ccccc2)C(=O)N1Cc1ccccc1"
45

Please give measured EC50 of the following entry: "COc1ccc(NC2=C(c3ccccc3)C(=O)N(C(C)(C)C)C2=O)cc1"
232

Give recorded EC50. "O=C1C(Nc2ccc(Cl)cc2)=C(c2ccccc2)C(=O)N1Cc1ccccc1"
1180

Return value of EC50 for input "COc1ccc(NC2=C(c3ccccc3)C(=O)N(Cc3ccc(F)cc3)C2=O)cc1" , no commentary.
594

Using known records, supply EC50 for "O=C1C(Nc2ccc(N3CCCCC3)cc2)=C(c2ccccc2)C(=O)N1Cc1ccccc1"
266

Output measured EC50 for this item: "O=C1C(Nc2ccc(N3CCNCC3)cc2)=C(c2ccccc2)C(=O)N1Cc1ccccc1"
283

Report EC50 for "O=C1C(Nc2ccc(N3CCSCC3)cc2)=C(c2ccccc2)C(=O)N1Cc1ccccc1"
123

Identify measured EC50 corresponding to "COc1ccc(NC2=C(c3ccccc3)C(=O)N(CC3CCCCC3)C2=O)cc1"
2590

Complete the entry with EC50 for "CC(C)(C)N1C(=O)C(Nc2ccc(N3CCCCC3)cc2)=C(c2ccccc2)C1=O"
156
